system: OVCAR-4 and OVCAR-8 cells; assay: SRB cell growth assay, result stated jointly for both cancer lines; assay type: cell-based, human; settings: span over the two cell lines, read-out: IC50 against OVCAR-4 and OVCAR-8 cells
pIC50: −log10 of the molar value.
Give pIC50 for every item shown.

IN: Give recorded pIC50 with OVCAR-4 and OVCAR-8 cells for the following compound: N.N.O=C([O-])C1(C(=O)[O-])CCC1.[Pt+2] [Carboplatin, carboplatin, reference compound]
OUT: 4.74 to 5.10

IN: Give recorded pIC50 with OVCAR-4 and OVCAR-8 cells for the following compound: CC1=CCC[C@@H]2[C@@](C)(CCC3=CC(=O)OC3O)[C@H](C)CC[C@@]12C (mixture of isomers)
OUT: > 5.22

Values from paper PMC8512812
